Item-by-item account of glycan array binding signal (z-score)
# Experimental system: Neu5Ac(a2-3)[GalNAc(b1-4)]Gal(b1-4)Glc
# Protocol notes: glycan array binding signal (z-score within array); higher = stronger binding
# Condition parameters: glycan notation: IUPAC condensed, linker removed
This excerpt belongs to a sample that is enriched for the strongest signals.
Measured property: glycan array binding signal (z-score)

SIGNR8 (Mus musculus) (protein) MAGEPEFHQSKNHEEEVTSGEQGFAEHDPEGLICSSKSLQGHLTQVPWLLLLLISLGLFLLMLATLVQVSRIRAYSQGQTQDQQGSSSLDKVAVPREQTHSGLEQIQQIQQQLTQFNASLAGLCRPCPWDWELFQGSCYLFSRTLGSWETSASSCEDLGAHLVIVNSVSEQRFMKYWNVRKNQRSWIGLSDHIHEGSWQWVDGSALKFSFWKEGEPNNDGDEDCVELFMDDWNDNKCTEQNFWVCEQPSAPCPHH : -0.4
CPA (Cicer arietinum) (protein) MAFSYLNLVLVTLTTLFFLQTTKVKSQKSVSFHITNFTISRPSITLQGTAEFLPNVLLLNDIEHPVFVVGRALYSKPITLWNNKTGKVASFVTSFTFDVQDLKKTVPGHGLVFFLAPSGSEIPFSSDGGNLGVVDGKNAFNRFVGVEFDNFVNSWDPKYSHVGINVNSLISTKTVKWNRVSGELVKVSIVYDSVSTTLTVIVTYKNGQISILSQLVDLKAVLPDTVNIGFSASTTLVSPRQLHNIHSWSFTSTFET : -0.34
MpAFP NterminalRI GFP (Marinomonas primoryensis) (protein) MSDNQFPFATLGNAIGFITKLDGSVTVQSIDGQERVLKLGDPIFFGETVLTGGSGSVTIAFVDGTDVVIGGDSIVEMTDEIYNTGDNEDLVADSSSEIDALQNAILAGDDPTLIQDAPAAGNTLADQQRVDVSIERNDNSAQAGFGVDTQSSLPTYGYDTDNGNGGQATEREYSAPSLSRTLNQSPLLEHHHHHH : -0.63
